Reported TGI values are given for each entry in this list.
System: UACC-257 melanoma
Test: NCI tumour cell line growth inhibition, 48 h
Provide the reading as a plain figure in µM.

Molecule: CCC(C)CC(C)C(=O)c1c(O)ccn(O)c1=O (configuration not stated)
Result: 8.38

Molecule: COc1cc(/C=C/C(=O)c2ccc(F)cc2)ccc1OCCCCCOc1cc2c(cc1OC)C(=O)N1CCCC1C=N2 (configuration not stated)
Result: 1.17

Molecule: NCCCNc1nc2ccc(Cl)cc2c2c(=O)c3cc(F)ccc3sc12
Result: 35.3

Molecule: CCCOc1ccc(/C=N/Nc2cc(C)nc3ccc(Cl)cc23)cc1
Result: 3.32

Note: attention shifts to another entry.
QUERY: Lab note: need TGI with UACC-257 melanoma for entry `N#Cc1c2ccccc2c2nnc3ccc(C(F)(F)F)cc3n12` , please look it up.
RESULT: 76.3

---

Test system: NCI-H522 lung
Assay: NCI tumour cell line growth inhibition, 48 h
Reported TGI values are given for each entry in this list.

// worked examples, TGI included
Compound: O=C(O)c1cn(C2CC2)c2cc(N3CCN(C(=O)Nc4nc(-c5ccc(Br)cc5)cs4)CC3)c(F)cc2c1=O
Readout Name: TGI
Result: > 100 µM

Compound: COc1cc2cc3c4cc(OC)c(OC)cc4cc[n+]3c(C)c2cc1OC
Readout Name: TGI
Result: > 100 µM

Compound: C#C[C@]1(O)[C@@H](CO)O[C@@H](n2ccc(N)nc2=O)[C@@H]1O
Readout Name: TGI
Result: 0.0365 µM

Compound: CCCCCCCC(CC(=O)NC(CO)C(=O)NC(CO)CC(C)C)OC(=O)CC(CCCCCCC)OC(=O)CC(CCCCCCC)OC1OC(C)C(O)C(OC2OC(C)C(O)C(O)C2O)C1O (stereo unspecified)
Readout Name: TGI
Result: 29.5 µM

QUERY: GET /values?readout=TGI&item= `CC(=O)CC(=O)NC=O`
RESULT: > 100 µM

QUERY: // query: `NS(=O)(=O)c1ccc(N=C2C(=O)Nc3ccccc32)cc1`
RESULT: > 100 µM

QUERY: // query: CCc1cccc(CC)c1NC(=O)CC1SC(N)=NC1=O (stereo unspecified)
RESULT: > 100 µM

QUERY: // query: CCP(=O)(CC)C(Cl)(Cl)C(O)C(Cl)(Cl)Cl (stereo unspecified)
RESULT: > 100 µM

QUERY: // query: COCC12CCC(OC)C34C5CC6(O)C(OC)C=C(C5C6OC(=O)c5ccccc5)C(C(OC)C13)C4N(C)C2 (stereo unspecified)
RESULT: > 100 µM

QUERY: // query: `CCOC(=O)Nc1n[nH]nc1Cl`
RESULT: > 100 µM

QUERY: // query: `Cc1cnc2c(c1)C(=O)N(c1ccc([N+](=O)[O-])cc1)S2(=O)=O`
RESULT: > 100 µM

QUERY: // query: `O=C1Oc2cc3c(c4cccc1c24)OCN(c1ccccc1)C3`
RESULT: 56.9 µM

QUERY: // query: N#CC(/C(=N/NC(N)=S)C(=O)Nc1cccc(Cl)c1)c1ccccc1 (stereo unspecified)
RESULT: > 100 µM

QUERY: // query: `CCOc1cc(/C=C/C(=O)C(C(=O)/C=C/c2ccc(OC(=O)CNc3nnc(C)s3)c(OCC)c2)C(=O)CNc2nnc(C)s2)ccc1OC(=O)CNc1nnc(C)s1`
RESULT: 5.71 µM

QUERY: // query: `O=C(CCc1ccc(O)c(O)c1)NCCc1cc(O)c(O)c(O)c1`
RESULT: 40.2 µM

QUERY: // query: COc1ccc(NS(=O)c2c(C)cc(C)cc2C)cc1 (stereo unspecified)
RESULT: > 100 µM

Values from PubChem BioAssay (NCI)
